Target: HLA-B*44:03 (human)
Test: radioligand competition, purified MHC
pIC50: −log10 of the molar value.

>  <binder>
GLITLSYHL (modifications not checked) [… (SEQ ID NO: 5)]

>  <pIC50>
4.61

$$$$
>  <binder>
APRITFGGP (modifications not checked) [… (SEQ ID NO: 42)]

>  <pIC50>
< 4.15

$$$$
>  <binder>
STSAFVETV (modifications not checked) [… (SEQ ID NO: 19)]

>  <pIC50>
< 4.15

$$$$
>  <binder>
ELPDEFVVV (modifications not checked) [… (SEQ ID NO: 12)]

>  <pIC50>
< 4.15

$$$$
